B1: library; numbered along this chain (parent)
chain: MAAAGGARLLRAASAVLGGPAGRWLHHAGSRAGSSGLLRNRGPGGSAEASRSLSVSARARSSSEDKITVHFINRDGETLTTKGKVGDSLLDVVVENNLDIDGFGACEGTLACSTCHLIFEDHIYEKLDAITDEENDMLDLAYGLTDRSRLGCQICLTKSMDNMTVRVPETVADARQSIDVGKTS

variants of: B1; test: scaled log2 fold change in cell abundance, elesclomol vs control (0 = silent mean, 1 = nonsense mean) (scaled log2 ratio); higher = higher viability under elesclomol (loss of FDX1 cuproptosis function); conditions: with HEK293T FDX1 KO; elesclomol 40 nM; glucose 10 mM; 11 days;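 also: variant abundance is its share of total variant reads in each endpoint sample, from next-generation sequencing of the integrated ORF PCR-amplified out of genomic DNA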
Assign class by scaled log2 fold change: not lower than 0.1 means TRUE; lower than 0.1 means FALSE.

mutation_code	discrete_label
R39H	FALSE
D65P	TRUE
D75T	FALSE
A141P	FALSE
E77K	FALSE
N96G	TRUE
D101A	FALSE
A3G	FALSE
V55Q	FALSE
A4T	TRUE
P43V	TRUE
L10M	TRUE
A47N	TRUE
R8T	FALSE
I130F	FALSE
S54T	FALSE
D99C	TRUE
G86P	TRUE
G33W	TRUE
T131A	FALSE
S159E	FALSE
A15C	FALSE
G104T	TRUE
E64V	FALSE
G143K	TRUE
V16H	TRUE
A111Y	TRUE
L25K	TRUE
S177Q	FALSE
V69K	TRUE
S14Y	TRUE
K84I	TRUE
G33K	TRUE
G151N	TRUE
A129V	TRUE
E169Q	TRUE
F103L	TRUE
D179E	FALSE
H26W	FALSE
G42A	FALSE
G29I	FALSE
R166M	FALSE
S34Q	FALSE
N135A	FALSE
D128A	FALSE
T157H	FALSE
V55H	TRUE
I154V	FALSE
T78L	TRUE
S159M	FALSE
A172W	TRUE
G76K	FALSE
S113G	FALSE
N40V	FALSE
L110K	FALSE
G6D	FALSE
M137L	TRUE
D99S	FALSE
S14N	FALSE
V167R	FALSE
T114M	TRUE
E95F	FALSE
F71P	TRUE
G18Q	TRUE
K82F	FALSE
V171Y	FALSE
T114N	TRUE
I123Q	FALSE
L150A	TRUE
V93F	FALSE
I154K	TRUE
A3F	FALSE
G108R	FALSE
M163L	TRUE
L127V	TRUE
R41N	FALSE
P20A	FALSE
T68M	TRUE
V165L	FALSE
G45W	TRUE
I100N	TRUE
K82E	FALSE
R166A	TRUE
V165T	FALSE
